Assay: in vitro
Details: human, hela cells, % viability
# viability at 28.5 h, 10 µM annotations
A number alone suffices; assume %.

Below are worked cases with known answers.
| molecule | viability at 28.5 h, 10 µM [%] |
| --- | --- |
| CC(C)(C)OC(=O)NCCNCc1ccccc1C(F)(F)F [CBK056695] | 80 |
| CCCc1nn(CC(=O)NC2CC2)c(=O)c2cc3ccsc3n12 [CBK284146] | 85.3 |
| Cn1c(N)c(C(=O)NCC2CCCO2)c2nc3ccccc3nc21 (stereo not drawn) [CBK269342] | 96.8 |

IN: # viability at 28.5 h, 10 µM lookup, item O=C(O)c1ccc2c(c1)CCN2S(=O)(=O)c1ccc(S(=O)(=O)N2CCOCC2)cc1 [CBK295625]
OUT: 97.1

IN: Now this one: O=C(O)c1cccc(C(=O)Nc2cccc(NC(=O)C3CCCO3)c2)c1 (stereo not drawn) [CBK268566]
OUT: 108

IN: Now this one: COc1ccc(C(=O)Nc2cc(C)c3c(=O)oc4ccccc4c3n2)cc1 [CBK287435]
OUT: 79.6
